Target: T1, cynomolgus MCSP D3 (cynomolgus, UniProt Q6UVK1 1582-2224 (human entry))
T1 construct: also called cynomolgus homologue; not shown: C-terminal tag
T1 chain: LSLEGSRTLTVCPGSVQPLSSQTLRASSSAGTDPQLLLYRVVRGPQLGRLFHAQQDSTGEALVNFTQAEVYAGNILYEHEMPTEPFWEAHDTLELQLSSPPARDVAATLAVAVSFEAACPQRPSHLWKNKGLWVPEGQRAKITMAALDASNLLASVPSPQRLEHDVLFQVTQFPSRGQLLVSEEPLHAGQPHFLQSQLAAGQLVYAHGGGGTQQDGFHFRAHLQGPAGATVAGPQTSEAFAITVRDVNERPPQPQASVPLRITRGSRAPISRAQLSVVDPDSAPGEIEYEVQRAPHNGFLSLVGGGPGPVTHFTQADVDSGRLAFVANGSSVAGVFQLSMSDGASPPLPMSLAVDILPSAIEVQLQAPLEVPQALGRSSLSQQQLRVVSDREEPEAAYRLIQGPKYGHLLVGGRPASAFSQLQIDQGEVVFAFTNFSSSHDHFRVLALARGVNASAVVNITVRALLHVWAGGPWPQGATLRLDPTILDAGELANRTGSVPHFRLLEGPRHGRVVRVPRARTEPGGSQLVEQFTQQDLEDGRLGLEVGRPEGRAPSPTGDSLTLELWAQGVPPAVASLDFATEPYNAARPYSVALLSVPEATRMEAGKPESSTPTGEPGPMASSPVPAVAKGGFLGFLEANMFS
Test: SPR (ProteOn XPR36), IgG KD against parental M4-3/ML2
endpointName: Comparative binding affinity - Fold increase over parent (fold)

M4-3/ML2 (C5) (IgG) (antibody, V domains shown, Human IgG1 format) VH: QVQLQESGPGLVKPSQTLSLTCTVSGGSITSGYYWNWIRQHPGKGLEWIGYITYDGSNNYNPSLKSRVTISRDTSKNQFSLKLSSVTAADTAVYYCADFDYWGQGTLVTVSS VL: DIQMTQSPSSLSASVGDRVTITCRASRGIREYLNWYQQKPGKAPKLLIYYTGSLHSGVPSRFSGSGSGTDFTLTISSLQPEDFATYYCQQYSELPWTFGQGTKVEIK :: 2
M4-3(C1)/ML2(E10) (IgG) (antibody, V domains shown, Human IgG1 format) VH: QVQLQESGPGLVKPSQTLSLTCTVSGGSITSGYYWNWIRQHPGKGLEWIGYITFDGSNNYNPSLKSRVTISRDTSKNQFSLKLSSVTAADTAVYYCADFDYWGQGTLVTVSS VL: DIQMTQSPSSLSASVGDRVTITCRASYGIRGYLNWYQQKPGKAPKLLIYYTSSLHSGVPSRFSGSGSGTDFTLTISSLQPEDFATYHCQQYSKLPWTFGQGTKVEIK :: 3.3
M4-3(C1)/ML2(G3) (IgG) (antibody, V domains shown, Human IgG1; also called MCSP M4-3(C1) ML2(G3)) VH: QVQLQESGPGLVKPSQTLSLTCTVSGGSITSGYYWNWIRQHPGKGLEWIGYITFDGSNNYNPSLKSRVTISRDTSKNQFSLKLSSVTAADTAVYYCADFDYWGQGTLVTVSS VL: DIQMTQSPSSLSASVGDRVTITCRASQGIRNYLNWYQQKPGKAPKLLIYYTSSLHSGVPSRFSGSGSGTDYTLTISSLQPEDFATYYCQQYSALPWTFGQGTKVEIKR :: 10
